activity coefficient reference
assay: activity coefficient (dimensionless); of the first substance listed, at infinite dilution; xn = mol fraction of the nth substance listed; settings: 343.15 K; Liquid; Chromatography; x1 = 0
// return just the number, without any unit appended

Here are 4 compounds together with their reported answers.
- compound: "CC1CCCC1 [methylcyclopentane] + CCn1cc[n+](C)c1.N#CN=C=[N-]"
  meas_value: 43.2
- compound: "ClC(Cl)(Cl)Cl [tetrachloromethane] + CCn1cc[n+](C)c1.N#CN=C=[N-]"
  meas_value: 4.71
- compound: "Cc1cccc(C)c1 [1,3-dimethylbenzene] + CCn1cc[n+](C)c1.N#CN=C=[N-]"
  meas_value: 7.27
- compound: "OCC(F)(F)F [2,2,2-trifluoroethanol] + CCn1cc[n+](C)c1.N#CN=C=[N-]"
  meas_value: 0.11

GET /values?readout=activity coefficient&item= C1COCCO1 [1,4-dioxane] + CCn1cc[n+](C)c1.N#CN=C=[N-]
1.25

* * *

assay: activity coefficient (dimensionless); of the first substance listed, at infinite dilution; xn = mol fraction of the nth substance listed; conditions: 352.65 K; Liquid; Chromatography; x1 = 0
activity coefficient reference
// return just the number, without any unit appended

Here are 2 molecules together with their reported answers.
- molecule: "ClCCl [dichloromethane] + CCCCCC[N+](C)(C)C.O=S(=O)([N-]S(=O)(=O)C(F)(F)F)C(F)(F)F"
  meas_value: 0.759
- molecule: "C1COCCO1 [1,4-dioxane] + CCCCCC[N+](C)(C)C.O=S(=O)([N-]S(=O)(=O)C(F)(F)F)C(F)(F)F"
  meas_value: 0.68

GET /values?readout=activity coefficient&item= CCCCCCCCCCCC [dodecane] + CCCCCC[N+](C)(C)C.O=S(=O)([N-]S(=O)(=O)C(F)(F)F)C(F)(F)F
52.9

GET /values?readout=activity coefficient&item= CCC(C)CC [3-methylpentane] + CCCCCC[N+](C)(C)C.O=S(=O)([N-]S(=O)(=O)C(F)(F)F)C(F)(F)F
7.88

* * *

assay: activity coefficient (dimensionless); of the first substance listed, at infinite dilution; xn = mol fraction of the nth substance listed; settings: 332.85 K; Liquid; Chromatography; x1 = 0
Classification field. Basis: activity coefficient. Definitions: band 1 = under 1, band 2 = from 1 up to 3, band 3 = 3 and over

Please review the entries below; each comes with its answer.
- molecule: "CCCCCCCCCCCCC [tridecane] + CCn1cc[n+](C)c1.N#CN=C=[N-]"
  category: "band 3"
- molecule: "CO [methanol] + CCn1cc[n+](C)c1.N#CN=C=[N-]"
  category: "band 1"
- molecule: "ClC(Cl)(Cl)Cl [tetrachloromethane] + CCn1cc[n+](C)c1.N#CN=C=[N-]"
  category: "band 3"
- molecule: "CCC(C)=O [butanone] + CCn1cc[n+](C)c1.N#CN=C=[N-]"
  category: "band 2"
- molecule: "c1ccccc1 [benzene] + CCn1cc[n+](C)c1.N#CN=C=[N-]"
  category: "band 2"
- molecule: "c1ccncc1 [pyridine] + CCn1cc[n+](C)c1.N#CN=C=[N-]"
  category: "band 2"
- molecule: "c1ccsc1 [thiophene] + CCn1cc[n+](C)c1.N#CN=C=[N-]"
  category: "band 2"
- molecule: "C1COCCO1 [1,4-dioxane] + CCn1cc[n+](C)c1.N#CN=C=[N-]"
  category: "band 2"

Form field 'band' for CC#N [acetonitrile] + CCn1cc[n+](C)c1.N#CN=C=[N-]
band 1

Form field 'band' for C1CCCCC1 [cyclohexane] + CCn1cc[n+](C)c1.N#CN=C=[N-]
band 3
